Test: soluble on expression in E. coli; label from the status in PepcDB or PDB records

- ENTRY SEQUENCE: "MNKRCEEVLRRYFAEVPFIIEKACELAESMLGEGSHGLSHTIRVLDLALQIGRVEGANLEVLALAAILHDIARPLEDKGRIKDHAQEGARIVRSFLSKLRYPHVDEVAHAIEAHRFSTNIEPRTLEAKILSDADKIDALGAIGIARVFMYAGEKGRSIEDSIKHFEEKILRLKDLMYTETGKRIAQERHKIVEEFVNILKKELIAAALEHHHHHH"
  soluble on expression in E. coli: "soluble"
- ENTRY SEQUENCE: "MAHHHHHHMSPYEYLFKYIIIGDTGVGKSCLLLQFTDKRFRADHDLTIGVEFGARLINLDNKQIKLQIWDTAGQESFRSITRSYYRGAAGALLVYDITRRETFNHLNRWLDEVRQNSNPHMAIILVGNKCDLERREVSAEEGAQFARQNGLIFLETSAKTAKNVEEAFLYTARKIYDNILEDVYDLSNESYGIKYGPNSQYSRVKLDIPSMPESRSGFSCC"
  soluble on expression in E. coli: "soluble"

* * *

Experiment: soluble on expression in E. coli; label from the status in PepcDB or PDB records

- ENTRY SEQUENCE: "MGSDKIHHHHHHMIPYNQSSVSTLQTKERKIDVFSVEGNVDNETVKSFGEEWTAFDSFNETEIYNAGDNYFDIVPETILKHITNALDVGCGTGRWSYYLSEKVGFIECIDPSEAVIAASSLLSGKNNIRISKAGVDNIPFADGTFDFVFSLGVLHHVPDTKKAVHACVQKLKMNGHILLYLYYNLENRGLIFKTLFHLSNSLRWMVSKLPGAIKRFVCDLLAIVIYMPFVIVSRILIKLNLAASVVSRVPLSWYADKSFNIIRNDSLDRFGTPLEQRFSKQQITDMLIHAGCTDIVFADNAPFWRVIAKKK"
  soluble on expression in E. coli: "not soluble"
- ENTRY SEQUENCE: "MSSSNWEKLKKKLDSAKSGRVEKKHSNEKKYLKSVKGKNNENENSYIVDKKRMNELKKFAKENDIPESQVLDAYGVDASKLTRKTNLETLGKYIAMDCEMVGVADDMSVLARVSIVNYHGHVVYDTYVRPKEKVTDWRTWVSGVKSFHMRDAPSFEKVQAEVAKILDNRVLVGHAVHNDLKVLLLSHPRRMIRDTSRFSGYRKLAKGRTPGLKKLAEVILGRDIQSGQHSSVQDAQATMELYKKVKKEMDEVAFKGLSKS"
  soluble on expression in E. coli: "soluble"
- ENTRY SEQUENCE: "PDVRRDKPVTGEQIEVFANKLGEQWKILAPYLEMKDSEIRQIECDSEDMKMRAKQLLVAWQDQEGVHATPENLINALNKSGLSDLAESLTNDNETNS"
  soluble on expression in E. coli: "soluble"
- ENTRY SEQUENCE: "MKLAVITDSTATLPTDLKQDKAIFSLDIPVIIDDETYFEGRNLSIDDFYQKMADSQNLPKTSQPSLSELDNLLGLLSSKGYTHVIGLFLAGGISGFWQNIQFLAEEHPEIEMAFPDSKITSAPLGSMVKNVLDWSRQGMTFQAILNKLQEQIDGTTAFIMVDDLNHLVKGGRLSNGSALLGNLLSIKPILRFDEEGKIVVYEKVRTEKKAMKRLVEILNDLIADGQYNVFIIHSKAQDKADYLKRLLQDSGYQYDIEEVHFGAVIATHLGEGAIAFGVTPRL"
  soluble on expression in E. coli: "not soluble"
- ENTRY SEQUENCE: "MGSDKIHHHHHHCWTYHYSEKPMNWENARKFCKQNYTDLVAIQNKREIEYLENTLPKSPYYYWIGIRKIGKMWTWVGTNKTLTKEAENWGAGEPNNKKSKEDCVEIYIKRERDSGKWNDDACHKRKAALCYTASCQPGSCNGRGECVETINNHTCICDAGYYGPQCQYVVQCEPLEAPELGTMDCIHPLGNFSFQSKCAFNCSEGRELLGTAETQCGASGNWSSPEPICQVVQCEPLEAPELGTMDCIHPLGNFSFQSKCAFNCSEGRELLGTAETQCGASGNWSSPEPICQETNRSFSKIKEGDYN"
  soluble on expression in E. coli: "not soluble"
- ENTRY SEQUENCE: "GSSEEESFFVQVHDVSPEQPRTVIKAPRVSTAQDVIQQTLCKAKYSLSILSNPNPSDYVLLEEVVKDTTNKKTTTPKSSQRVLLDQECVFQAQSKWKGAGKFILKLKEQVQASREDK"
  soluble on expression in E. coli: "soluble"
